mean cell size: recorded values
System: Jurkat
Experiment Notes: mean cell size (FSC-A) relative to DMSO control (fraction of control); higher = larger cells
Run Conditions: 48 h
Structures can show the parent of a compound that is named as a salt.
Readout Type: mean cell size

Compound: CNCCC(Oc1ccc(C(F)(F)F)cc1)c1ccccc1 (stereo not drawn) [Fluoxetine·HCl] (concentration: 25 µM)
Readout Type: mean cell size
Quantitative Result: 0.992

Compound: O=C1N=C(O)CN1N=Cc1ccc(-c2ccc([N+](=O)[O-])cc2)o1 [Dantrolene·Na] (concentration: 25 µM)
Readout Type: mean cell size
Quantitative Result: 1

Compound: CCC[C@@H]1C[C@@H](C(=O)N[C@@H]([C@H]2O[C@H](SC)[C@H](O)[C@@H](O)[C@H]2O)[C@H](C)Cl)N(C)C1 [Clindamycin·HCl] (concentration: 25 µM)
Readout Type: mean cell size
Quantitative Result: 1.07

====

Tested on: Jurkat
Experiment Notes: mean cell size (FSC-A) relative to DMSO control (fraction of control); higher = larger cells
Run Conditions: 48 h
Counter-ions that a name gives are not always drawn.
Overview of recorded mean cell size for various compounds

Compound: Cc1cc(NS(=O)(=O)c2ccc(N)cc2)no1 [Sulfamethoxazole] (concentration: 25 µM)
System: Jurkat
mean cell size: 0.962
--
Compound: CCCN[C@H]1CCc2nc(N)sc2C1 [Pramipexole Dihydrochloride Monohydrate] (concentration: 25 µM)
System: Jurkat
mean cell size: 1
--
Compound: CC(=O)N[C@H]1[C@H]([C@H](O)[C@H](O)CO)OC(C(=O)O)=C[C@@H]1NC(=N)N [Zanamivir] (concentration: 25 µM)
System: Jurkat
mean cell size: 0.993
--
Compound: C=C(CC)C(=O)c1ccc(OCC(=O)O)c(Cl)c1Cl [Ethacrynic Acid] (concentration: 25 µM)
System: Jurkat
mean cell size: 0.924
--
Compound: Fc1ccc([C@@H]2CCNC[C@H]2COc2ccc3c(c2)OCO3)cc1 [Paroxetine·HCl] (concentration: 2.5 µM)
System: Jurkat
mean cell size: 1.01
--
Compound: Nc1ccn([C@@H]2O[C@H](CO)[C@@H](O)C2(F)F)c(=O)n1 [Gemcitabine·HCl] (concentration: 25 nM)
System: Jurkat
mean cell size: 1.12
--
Compound: COc1c2occc2cc2ccc(=O)oc12 [Methoxsalen (Xanthotoxin)] (concentration: 25 µM)
System: Jurkat
mean cell size: 1.04

====

Test system: Jurkat
Experiment Notes: cell count relative to DMSO control (fraction of control); higher = more cells (less growth inhibition)
Run Conditions: 48 h
Where a name gives a salt, the structure may show the parent alone.
Class key for cell count values: low value: < 0.7; medium value: ≥ 0.7 and < 0.9; high value: ≥ 0.9

Compound: Nc1ccn([C@@H]2CS[C@H](CO)O2)c(=O)n1 [Lamivudine] (concentration: 25 µM)
Class Name: low value

Compound: COc1ccc2cc([C@H](C)C(=O)O)ccc2c1 [Naproxen] (concentration: 25 µM)
Class Name: low value

Compound: CN1CCC(=C2c3ccccc3C=Cc3ccccc32)CC1 [Cyproheptadine·HCl Sesquihydrate] (concentration: 25 µM)
Class Name: medium value

Compound: CCCCc1ncc(/C=C(\Cc2cccs2)C(=O)O)n1Cc1ccc(C(=O)O)cc1 [Eprosartan Mesylate] (concentration: 25 µM)
Class Name: medium value

Compound: CC(C)C[C@H](NC(=O)[C@@H](COC(C)(C)C)NC(=O)[C@H](Cc1ccc(O)cc1)NC(=O)[C@H](CO)NC(=O)[C@H](Cc1c[nH]c2ccccc12)NC(=O)[C@H](Cc1cnc[nH]1)NC(=O)[C@@H]1CCC(=O)N1)C(=O)N[C@@H](CCCNC(=N)N)C(=O)N1CCC[C@H]1C(=O)NNC(N)=O [Goserelin Acetate] (concentration: 25 µM)
Class Name: high value

Compound: NC1=NCC2c3ccccc3Cc3ccccc3N12 (configuration not stated) [Epinastine·HCl] (concentration: 25 µM)
Class Name: high value

Compound: COc1ccc(OC)c(C(O)CNC(=O)CN)c1 (configuration not stated) [Midodrine·HCl] (concentration: 25 µM)
Class Name: low value

Compound: CC(C)NCC(O)COc1ccc(CC(N)=O)cc1 (racemic) [(±)-Atenolol] (concentration: 25 µM)
Class Name: high value

Compound: Cn1ccnc1S [Methimazole] (concentration: 25 µM)
Class Name: medium value

Compound: Cc1ccc(Nc2nccc(N(C)c3ccc4c(C)n(C)nc4c3)n2)cc1S(N)(=O)=O [Pazopanib·HCl] (concentration: 25 µM)
Class Name: medium value

Compound: Cc1cccc(C)c1NC(=O)C1CCCCN1C (configuration not stated) [Mepivacaine·HCl] (concentration: 25 µM)
Class Name: high value

Compound: O=C(c1ccc(OCCN2CCCCC2)cc1)c1c(-c2ccc(O)cc2)sc2cc(O)ccc12 [Raloxifene·HCl] (concentration: 25 µM)
Class Name: low value

Compound: CC(COc1ccccc1)N(CCCl)Cc1ccccc1 (configuration not stated) [Phenoxybenzamine·HCl] (concentration: 25 µM)
Class Name: medium value

Compound: CCCCC(=O)N(Cc1ccc(-c2ccccc2-c2nnn[nH]2)cc1)[C@H](C(=O)O)C(C)C [Valsartan] (concentration: 25 µM)
Class Name: high value

Compound: CO[C@H]1C[C@@H]2CC[C@@H](C)[C@@](O)(O2)C(=O)C(=O)N2CCCC[C@H]2C(=O)O[C@H]([C@H](C)C[C@@H]2CC[C@@H](OCCO)[C@H](OC)C2)CC(=O)[C@H](C)/C=C(\C)[C@@H](O)[C@@H](OC)C(=O)[C@H](C)C[C@H](C)/C=C/C=C/C=C/1C [Everolimus] (concentration: 2.5 µM)
Class Name: low value

Compound: CCN(CC)CCOc1ccc(C(=C(Cl)c2ccccc2)c2ccccc2)cc1 [Clomiphene Citrate] (concentration: 25 µM)
Class Name: medium value

Compound: CSc1ccc2c(c1)N(CCC1CCCCN1C)c1ccccc1S2 (configuration not stated) [Thioridazine·HCl] (concentration: 2.5 µM)
Class Name: low value

Compound: C=C(CC)C(=O)c1ccc(OCC(=O)O)c(Cl)c1Cl [Ethacrynic Acid] (concentration: 25 µM)
Class Name: low value

Compound: CCC1=C[C@@H]2CN(C1)Cc1c([nH]c3ccccc13)[C@@](C(=O)OC)(c1cc3c(cc1OC)N(C)[C@H]1[C@@](O)(C(=O)OC)[C@H](OC(C)=O)[C@]4(CC)C=CCN5CC[C@]31[C@@H]54)C2 [Vinorelbine] (concentration: 250 nM)
Class Name: low value
